These measurements were taken from ChEMBL document CHEMBL1136936.

# experimental protocol: Half life in dog at 0.75 mg/kg, iv
# Assay type: ADME, organism-based, Canis lupus familiaris
# Parameters: dose 0.75 mg/kg, route intravenous
# reported conditions: in vivo
assay readout: half-life
Field: value (include unit after the number)

Provide half-life value for the following compound: O=C(Nc1ccc(C[C@H](NC(=O)[C@@H]2C[C@@H](N3CCC3)CN2S(=O)(=O)c2cc(Cl)cc(Cl)c2)C(=O)O)cc1)c1c(Cl)cncc1Cl 30 min

----------
pIC50 reference
# target of assay: Integrin alpha-4 (Homo sapiens, UniProt P13612)
# experimental protocol: Displacement of [125I]-(S)-2-((2S,4R)-4-(azetidin-1-yl)-1-(3-iodophenylsulfonyl)pyrrolidine-2-carboxamido)-3-(4-(3,5-dichloroisonicotinamido)phenyl)propanoic acid from VLA4 in human whole blood by competitive binding assay
# Type: tissue-based
As a rule, pIC50 stands for the negative log10 of the concentration, concentration in M.

Please review the entries below; each comes with its answer.
O=C(Nc1ccc(C[C@H](NC(=O)[C@@H]2C[C@@H](N3CCC3)CN2S(=O)(=O)c2cc(Cl)cc(Cl)c2)C(=O)O)cc1)c1c(Cl)cncc1Cl	9.70
O=C(Nc1ccc(C[C@H](NC(=O)[C@@H]2C[C@@H](N3CCCC3)CN2S(=O)(=O)c2cc(Cl)cc(Cl)c2)C(=O)O)cc1)c1c(Cl)cncc1Cl	9.70
N[C@@H]1C[C@@H](C(=O)N[C@@H](Cc2ccc(NC(=O)c3c(Cl)cncc3Cl)cc2)C(=O)O)N(S(=O)(=O)c2cc(Cl)cc(Cl)c2)C1	9.40
O=C(Nc1ccc(C[C@H](NC(=O)[C@@H]2C[C@@H](NC3CCC3)CN2S(=O)(=O)c2cc(Cl)cc(Cl)c2)C(=O)O)cc1)c1c(Cl)cncc1Cl	10.00
O=C(Nc1ccc(C[C@H](NC(=O)[C@@H]2CCCN2S(=O)(=O)c2cc(Cl)cc(Cl)c2)C(=O)O)cc1)c1c(Cl)cncc1Cl	8.82
O=C(Nc1ccc(C[C@H](NC(=O)[C@@H]2C[C@@H](N3CCCCC3)CN2S(=O)(=O)c2cc(Cl)cc(Cl)c2)C(=O)O)cc1)c1c(Cl)cncc1Cl	9.52

From here, focus on the item given below.
Provide pIC50 value for the following compound: C[C@@]1(C(=O)N[C@@H](Cc2ccc(NC(=O)c3c(Cl)cncc3Cl)cc2)C(=O)O)CCCN1S(=O)(=O)c1cc(Cl)cc(Cl)c1 7.31

----------
# experimental protocol: Plasma Clearance in dog at 5 mg/kg, po
# Format: ADME, organism-based, Canis lupus familiaris
# Parameters: dose 5 mg/kg, route oral
assay readout: CL/F (mL/min/kg)
// note: answer is a bare numeric in mL/min/kg

Provide CL/F value for the following compound: N#Cc1cccc(S(=O)(=O)N2C[C@H](NC3CCC3)C[C@H]2C(=O)N[C@@H](Cc2ccc(NC(=O)c3c(Cl)cncc3Cl)cc2)C(=O)O)c1 29

----------
# experimental protocol: Half life in rat at 0.5 mg/kg, iv
# Type: ADME, organism-based
# Set-up: dose 0.5 mg/kg, route intravenous
# reported conditions: in vivo
assay readout: half-life (h)
// note: answer is a bare numeric in h

Provide half-life value for the following molecule: O=C(Nc1ccc(C[C@H](NC(=O)[C@@H]2C[C@@H](N3CCC3)CN2S(=O)(=O)c2cc(Cl)cc(Cl)c2)C(=O)O)cc1)c1c(Cl)cncc1Cl 1

----------
IC50 reference
# target of assay: Integrin alpha-4 (Homo sapiens)
# experimental protocol: Displacement of [125I]-(S)-2-((2S,4R)-4-(azetidin-1-yl)-1-(3-iodophenylsulfonyl)pyrrolidine-2-carboxamido)-3-(4-(3,5-dichloroisonicotinamido)phenyl)propanoic acid from VLA4 in human Jurkat cells washed with Hepes buffer by competitive binding assay
# Type: cell-based
// note: answer is a bare numeric in nM

Provide IC50 value for the following compound: C[C@@]1(C(=O)N[C@@H](Cc2ccc(NC(=O)c3c(Cl)cncc3Cl)cc2)C(=O)O)CCCN1S(=O)(=O)c1cc(Cl)cc(Cl)c1 0.11

Provide IC50 value for the following compound: O=C(Nc1ccc(C[C@H](NC(=O)[C@@H]2C[C@H](N3CCC3)CN2S(=O)(=O)c2cc(Cl)cc(Cl)c2)C(=O)O)cc1)c1c(Cl)cncc1Cl 0.2

Provide IC50 value for the following compound: O=C(Nc1ccc(C[C@H](NC(=O)[C@@H]2CCCN2S(=O)(=O)c2cc(Cl)cc(Cl)c2)C(=O)O)cc1)c1c(Cl)cncc1Cl 0.07

----------
# target of assay: Integrin alpha-4 (Homo sapiens)
# Sequence (P13612 whole entry): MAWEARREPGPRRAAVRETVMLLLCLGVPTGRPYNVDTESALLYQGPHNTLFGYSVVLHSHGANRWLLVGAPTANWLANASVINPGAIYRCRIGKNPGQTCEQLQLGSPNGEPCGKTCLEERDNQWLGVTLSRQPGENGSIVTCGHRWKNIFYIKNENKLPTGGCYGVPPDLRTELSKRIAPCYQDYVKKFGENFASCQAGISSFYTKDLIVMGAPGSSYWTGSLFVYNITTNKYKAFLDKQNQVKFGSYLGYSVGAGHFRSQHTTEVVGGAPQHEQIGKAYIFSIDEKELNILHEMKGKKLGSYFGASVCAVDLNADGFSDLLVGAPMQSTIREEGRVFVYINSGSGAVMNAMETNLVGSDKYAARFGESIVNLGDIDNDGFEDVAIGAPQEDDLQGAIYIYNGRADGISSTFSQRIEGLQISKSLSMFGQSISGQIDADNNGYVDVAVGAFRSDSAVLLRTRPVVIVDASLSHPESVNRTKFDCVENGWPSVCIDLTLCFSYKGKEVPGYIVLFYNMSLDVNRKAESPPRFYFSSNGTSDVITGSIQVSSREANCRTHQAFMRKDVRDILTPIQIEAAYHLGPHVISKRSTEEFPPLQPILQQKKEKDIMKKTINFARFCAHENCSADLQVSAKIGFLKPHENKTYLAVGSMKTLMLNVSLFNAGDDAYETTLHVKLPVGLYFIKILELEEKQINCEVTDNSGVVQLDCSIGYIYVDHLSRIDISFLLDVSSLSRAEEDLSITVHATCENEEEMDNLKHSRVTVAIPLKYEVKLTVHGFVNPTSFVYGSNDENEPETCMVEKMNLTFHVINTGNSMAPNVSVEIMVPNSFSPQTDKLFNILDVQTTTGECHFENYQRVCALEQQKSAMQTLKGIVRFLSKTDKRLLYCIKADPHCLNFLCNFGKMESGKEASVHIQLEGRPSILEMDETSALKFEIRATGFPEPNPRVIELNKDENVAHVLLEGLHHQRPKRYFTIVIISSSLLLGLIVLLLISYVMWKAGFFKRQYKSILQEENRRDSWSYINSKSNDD
# experimental protocol: Displacement of [125I]-(S)-2-((2S,4R)-4-(azetidin-1-yl)-1-(3-iodophenylsulfonyl)pyrrolidine-2-carboxamido)-3-(4-(3,5-dichloroisonicotinamido)phenyl)propanoic acid from VLA4 in human Jurkat cells washed with Hepes buffer by competitive binding assay
# Type: cell-based
assay readout: IC50 (nM)
// note: answer is a bare numeric in nM

N[C@@H]1C[C@@H](C(=O)N[C@@H](Cc2ccc(NC(=O)c3c(Cl)cncc3Cl)cc2)C(=O)O)N(S(=O)(=O)c2cc(Cl)cc(Cl)c2)C1	0.09
O=C(Nc1ccc(C[C@H](NC(=O)[C@@H]2C[C@@H](N3CCCCC3)CN2S(=O)(=O)c2cc(Cl)cc(Cl)c2)C(=O)O)cc1)c1c(Cl)cncc1Cl	0.09
O=C(Nc1ccc(C[C@H](NC(=O)[C@@H]2C[C@@H](N3CCCC3)CN2S(=O)(=O)c2cc(Cl)cc(Cl)c2)C(=O)O)cc1)c1c(Cl)cncc1Cl	0.1
O=C(Nc1ccc(C[C@H](NC(=O)[C@@H]2C[C@@H](N3CCC3)CN2S(=O)(=O)c2cc(Cl)cc(Cl)c2)C(=O)O)cc1)c1c(Cl)cncc1Cl	0.08

From here, focus on the item given below.
GET IC50 | system: Integrin alpha-4 (Homo sapiens) | item: O=C(Nc1ccc(C[C@H](NC(=O)[C@@H]2C[C@@H](NC3CCC3)CN2S(=O)(=O)c2cc(Cl)cc(Cl)c2)C(=O)O)cc1)c1c(Cl)cncc1Cl 0.1

----------
# target of assay: Integrin alpha-4 (Homo sapiens)
# experimental protocol: Binding affinity to human VLA4 at 37 degC after 3 hrs
# Design: concentration or dose not given beside the values
Activity reference
// note: answer is a bare numeric in %

Please review the entries below; each comes with its answer.
O=C(Nc1ccc(C[C@H](NC(=O)[C@@H]2C[C@@H](NC3CCC3)CN2S(=O)(=O)c2cc(Cl)cc(Cl)c2)C(=O)O)cc1)c1c(Cl)cncc1Cl	82
O=C(Nc1ccc(C[C@H](NC(=O)[C@@H]2C[C@@H](N3CCCCC3)CN2S(=O)(=O)c2cc(Cl)cc(Cl)c2)C(=O)O)cc1)c1c(Cl)cncc1Cl	89

Provide Activity value for the following compound: N#Cc1cccc(S(=O)(=O)N2C[C@H](NC3CCC3)C[C@H]2C(=O)N[C@@H](Cc2ccc(NC(=O)c3c(Cl)cncc3Cl)cc2)C(=O)O)c1 64

Provide Activity value for the following compound: O=C(Nc1ccc(C[C@H](NC(=O)[C@@H]2C[C@@H](N3CCCC3)CN2S(=O)(=O)c2cc(Cl)cc(Cl)c2)C(=O)O)cc1)c1c(Cl)cncc1Cl 82

Provide Activity value for the following compound: O=C(Nc1ccc(C[C@H](NC(=O)[C@@H]2C[C@@H](N3CCC3)CN2S(=O)(=O)c2cc(Cl)cc(Cl)c2)C(=O)O)cc1)c1c(Cl)cncc1Cl 77
